B1: Zinc finger MYM-type protein 3, residues 405 to 444; numbered along this chain, Q14202 (parent)
chain: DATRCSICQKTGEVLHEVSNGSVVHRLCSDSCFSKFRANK

- Variants of: B1
- protocol_text: abundance fitness (aPCA) (normalised: wild type 0, dead -1); higher = more abundant; growth selection in yeast, the domain comes from the species named
- run_conditions: Homo sapiens
readout: abundance fitness
I only need the number, thanks.

Solved entries:
mutations | abundance fitness
C8S | -0.927
S19T | -0.009
N39M | 0.048
V23M | 0.13
S19H | -0.268
C28R | -0.873

Req: Quick one: abundance fitness of V23L ?
Resp: -0.317

Entry source: the Human Domainome abundance scans (Beltran et al. 2025)
